Numbers sourced from patent US10221173B2.

tested.target: recombinant human Estrogen Receptor alpha ligand binding domain (ER alpha-LBD (GST)) (Homo sapiens (Human))
Sequence (P03372 307-554): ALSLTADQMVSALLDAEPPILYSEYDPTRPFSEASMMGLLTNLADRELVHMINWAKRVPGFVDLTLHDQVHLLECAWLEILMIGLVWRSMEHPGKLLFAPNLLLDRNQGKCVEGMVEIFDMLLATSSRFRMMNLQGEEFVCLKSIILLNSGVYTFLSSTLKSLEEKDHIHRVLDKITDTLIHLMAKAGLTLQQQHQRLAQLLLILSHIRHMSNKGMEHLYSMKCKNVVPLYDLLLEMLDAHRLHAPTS
assay.explanation: ERα binding assay (LanthaScreen TR-FRET competition)
Listed below: IC50 values for each entry.
measurement.name: IC50 (nM)

- substance.smiles: "COc1ccc(OCCNCCCF)c(F)c1[C@@H]1c2[nH]c3ccccc3c2C[C@@H](C)N1CC1(F)COC1"
  result.modifier: "="
  result.number: 0.94
- substance.smiles: "COc1nnc(OCCNCCCF)cc1[C@@H]1c2[nH]c3ccccc3c2C[C@@H](C)N1CC(F)(F)F"
  result.modifier: "="
  result.number: 2
- substance.smiles: "COc1ccc(OCCNCCCF)nc1[C@@H]1c2[nH]c3ccccc3c2C[C@@H](C)N1CC(F)(F)F"
  result.modifier: "="
  result.number: 39
- substance.smiles: "C[C@@H]1Cc2c([nH]c3ccccc23)[C@@H](c2cc(OCCNCCCF)ccc2Cl)N1CC(F)(F)F"
  result.modifier: "="
  result.number: 1.4
- substance.smiles: "Cc1c(OCCN(C)CCCF)ccc(F)c1[C@@H]1c2[nH]c3ccc(F)cc3c2C[C@@H](C)N1C[C@@H](C)C(=O)O"
  result.modifier: "="
  result.number: 1.9
- substance.smiles: "C[C@@H]1Cc2c([nH]c3ccccc23)[C@@H](c2cccc(OCCNCCCF)c2C#N)N1CC(F)(F)F"
  result.modifier: "="
  result.number: 1.4
- substance.smiles: "C[C@@H]1Cc2c([nH]c3ccccc23)[C@@H](c2cc(OCCNCCCF)ccc2Cl)N1CC(F)(F)CO"
  result.modifier: "="
  result.number: 1
- substance.smiles: "COc1ccc(OCCNCCCF)c(C)c1[C@@H]1c2[nH]c3ccccc3c2C[C@@H](C)N1CC(F)(F)F"
  result.modifier: "="
  result.number: 0.85
- substance.smiles: "C[C@@H]1Cc2c([nH]c3ccccc23)[C@@H](c2cc(F)cc(OCCNCCCF)c2F)N1CC(F)(F)F"
  result.modifier: "="
  result.number: 5.4
- substance.smiles: "Cc1c([C@@H]2c3[nH]c4ccccc4c3C[C@@H](C)N2C[C@H](C)C(=O)O)ccnc1OCCNCCCF"
  result.modifier: "="
  result.number: 2
- substance.smiles: "C[C@@H]1Cc2c([nH]c3ccc(F)cc23)[C@@H](c2c(F)ccc(OCCNCCCF)c2F)N1CC(F)(F)CO"
  result.modifier: "="
  result.number: 0.55
- substance.smiles: "Cc1c([C@@H]2c3[nH]c4ccccc4c3C[C@@H](C)N2CC(F)(F)CO)ccnc1OCCNCCCF"
  result.modifier: "="
  result.number: 0.56
- substance.smiles: "C[C@@H]1Cc2c([nH]c3ccc(F)cc23)[C@@H](c2c(F)cnc(OCCNCCCF)c2F)N1CC(F)(F)CO"
  result.modifier: "="
  result.number: 0.64
- substance.smiles: "C[C@@H]1Cc2c([nH]c3ccccc23)[C@@H](c2c(F)cnc(OCCNCCCF)c2F)N1CC(F)(F)F"
  result.modifier: "="
  result.number: 1.3
- substance.smiles: "Cc1c(OCCNCCC(F)F)ccc(F)c1[C@@H]1c2[nH]c3ccccc3c2C[C@@H](C)N1C[C@H](C)C(=O)O"
  result.modifier: "="
  result.number: 3.9
- substance.smiles: "Cc1c(OCCNCCCF)ccc(F)c1[C@@H]1c2[nH]c3ccc(F)cc3c2C[C@@H](C)N1C[C@H](C)C(=O)O"
  result.modifier: "="
  result.number: 2.6
- substance.smiles: "Cc1c(NCCNCCCF)ccnc1[C@@H]1c2[nH]c3ccccc3c2C[C@@H](C)N1CC(F)(F)F"
  result.modifier: "="
  result.number: 5.6
- substance.smiles: "COc1ccc(OCCNCCCF)cc1[C@@H]1c2[nH]c3ccccc3c2C[C@@H](C)N1CC1(F)CC1"
  result.modifier: "="
  result.number: 0.58
- substance.smiles: "C[C@@H](CN1[C@H](c2c(F)ccc(OCCNCCCF)c2Cl)c2[nH]c3ccccc3c2C[C@H]1C(F)(F)F)C(=O)O"
  result.modifier: "="
  result.number: 2.8
- substance.smiles: "COc1ccc(OCCNCCCF)cc1[C@@H]1c2[nH]c3ccc(F)cc3c2C[C@@H](C)N1CC(F)(F)CO"
  result.modifier: "="
  result.number: 1
- substance.smiles: "C[C@@H]1Cc2c([nH]c3ccccc23)[C@@H](c2nccc(OCCNCCCF)c2F)N1CC(F)(F)F"
  result.modifier: "="
  result.number: 1.6
- substance.smiles: "COc1ccc(OCCNCCCF)c(F)c1[C@@H]1c2[nH]c3ccccc3c2C[C@@H](C)N1CC(F)(F)CO"
  result.modifier: ">"
  result.number: 110
- substance.smiles: "COc1cc(F)c(NCCNCCCF)cc1[C@@H]1c2[nH]c3ccccc3c2C[C@@H](C)N1CC(F)(F)F"
  result.modifier: "="
  result.number: 9.4
- substance.smiles: "C[C@@H]1Cc2c([nH]c3ccccc23)[C@@H](c2cc(OCCNCCCF)ccc2C#N)N1CC(F)(F)F"
  result.modifier: "="
  result.number: 2.7
- substance.smiles: "Cc1c(N(C)CCN(C)CCCF)ccc(F)c1[C@@H]1c2[nH]c3ccccc3c2C[C@@H](C)N1C[C@H](C)C(=O)O"
  result.modifier: "="
  result.number: 51
- substance.smiles: "C[C@@H]1Cc2c([nH]c3ccccc23)[C@@H](c2ccnc(OCCNCCCF)c2)N1CC(F)(F)F"
  result.modifier: "="
  result.number: 2
- substance.smiles: "C[C@@H]1Cc2c([nH]c3cc(F)ccc23)[C@@H](c2c(F)ccc(OCCNCCCF)c2F)N1CC(F)(F)CO"
  result.modifier: "="
  result.number: 0.79
- substance.smiles: "Cc1c(OCCN(C)CCCF)ncc(F)c1[C@@H]1c2[nH]c3ccc(F)cc3c2C[C@@H](C)N1CCC(=O)O"
  result.modifier: "="
  result.number: 1.2
